tested on: Danio rerio larvae (5 dpf); assay: optomotor response to red moving lines, difference vs DMSO (percentage points (treated minus DMSO)); higher = more of the behaviour than the DMSO vehicle control; conditions: 10 µM; exposure time: 3 h pre-incubation + 3 h imaging
I'd appreciate it if you could supply optomotor response to red moving lines values for the items below.
One number for each entry.

Solved entries:
QUERY: optomotor response to red moving lines lookup needed for COc1cc2nccc(Oc3ccc(NC(=O)C4(C(=O)Nc5ccc(F)cc5)CC4)cc3)c2cc1OC , thanks.
RESULT: -13.9

QUERY: optomotor response to red moving lines lookup needed for CC(C)CN(C[C@@H](O)[C@H](Cc1ccccc1)NC(=O)O[C@H]1CO[C@H]2OCC[C@H]21)S(=O)(=O)c1ccc(N)cc1 [Darunavir] , thanks.
RESULT: 4.11

QUERY: optomotor response to red moving lines lookup needed for C[C@H]1C[C@@H]2[C@H]([C@@H](O)C[C@@]3(C)[C@H]2CC[C@]3(O)C(=O)CO)[C@@]2(C)C=CC(=O)C=C12 [Methylprednisolone] , thanks.
RESULT: -1.93

QUERY: optomotor response to red moving lines lookup needed for CC(C)c1ccc2oc3nc(N)c(C(=O)O)cc3c(=O)c2c1 [Amlexanox] , thanks.
RESULT: -3.59

QUERY: optomotor response to red moving lines lookup needed for C[C@]12CCC(=O)C=C1CC[C@@H]1[C@@H]2[C@@H](O)C[C@@]2(C)[C@H]1CC[C@]2(O)C(=O)CO [Hydrocortisone] , thanks.
RESULT: 13

QUERY: optomotor response to red moving lines lookup needed for Clc1ccc(COC(Cn2ccnc2)c2ccc(Cl)cc2Cl)c(Cl)c1 (configuration not stated) [Miconazole nitrate] , thanks.
RESULT: -8.36

Turning now to a further compound:
QUERY: optomotor response to red moving lines lookup needed for OCCN1C[C@H](O)[C@@H](O)[C@H](O)[C@H]1CO [Miglitol] , thanks.
RESULT: 9.81
